tested on: 755483-174-R-J1-PDC complex spheroid growth, percent test/control; experiment: Anticancer human tumor 755483-174-R-J1-PDC patient-derived rhabdomyosarcoma cell line growth inhibition [Asc]; details: second compound 1 µM; first compound 0.000316 µM; stronger effect = lower value
Property label: viability, T/C

[[record]]
molecule = "NC1CCC(NC2CC2c2ccccc2)CC1 (centres undefined) + CNC(C)C(=O)NC1CN(S(=O)(=O)c2cccc(S(=O)(=O)N3CCC4CCC(C(=O)NC(c5ccccc5)c5ccccc5)N4C(=O)C(NC(=O)C(C)NC)C3)c2)CCC2CCC(C(=O)NC(c3ccccc3)c3ccccc3)N2C1=O"
target_or_system = "755483-174-R-J1-PDC complex spheroid growth, percent test/control"
readout_value = "25.9%"

[[record]]
molecule = "NC1CCC(NC2CC2c2ccccc2)CC1 (centres undefined) + Cc1c(S(C)(=O)=O)c(-c2cc(F)cc(N3CCN(c4ccc(NS(=O)(=O)c5ccc(NC(CCN6CCC(C(=O)OCCCP(=O)(O)O)CC6)CSc6ccccc6)c(S(=O)(=O)C(F)(F)F)c5)cc4)CC3)c2)c(-c2ccc(Cl)cc2)n1C(C)C"
target_or_system = "755483-174-R-J1-PDC complex spheroid growth, percent test/control"
readout_value = "27.6%"

[[record]]
molecule = "Cn1ncnc1[C@H]1c2n[nH]c(=O)c3cc(F)cc(c23)N[C@@H]1c1ccc(F)cc1 + Cc1c(S(C)(=O)=O)c(-c2cc(F)cc(N3CCN(c4ccc(NS(=O)(=O)c5ccc(NC(CCN6CCC(C(=O)OCCCP(=O)(O)O)CC6)CSc6ccccc6)c(S(=O)(=O)C(F)(F)F)c5)cc4)CC3)c2)c(-c2ccc(Cl)cc2)n1C(C)C"
target_or_system = "755483-174-R-J1-PDC complex spheroid growth, percent test/control"
readout_value = "38.2%"

[[record]]
molecule = "Cn1ncnc1[C@H]1c2n[nH]c(=O)c3cc(F)cc(c23)N[C@@H]1c1ccc(F)cc1 + CNC(C)C(=O)NC1CN(S(=O)(=O)c2cccc(S(=O)(=O)N3CCC4CCC(C(=O)NC(c5ccccc5)c5ccccc5)N4C(=O)C(NC(=O)C(C)NC)C3)c2)CCC2CCC(C(=O)NC(c3ccccc3)c3ccccc3)N2C1=O"
target_or_system = "755483-174-R-J1-PDC complex spheroid growth, percent test/control"
readout_value = "13.7%"


###

system: 755483-174-R-J1-PDC complex spheroid growth, percent test/control; test: Anticancer human tumor 755483-174-R-J1-PDC cell line growth inhibition [Asc]; settings: curve of first compound; second compound 1 µM;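 further: spheroids exposed to compounds for seven days before readout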
pIC50: −log10 of the molar value.
Property label: pIC50

[[record]]
compound = "NC(=O)C(=Cn1cnc(-c2cc(C(F)(F)F)cc(C(F)(F)F)c2)n1)c1cncnc1 + CNC(C)C(=O)NC1CN(S(=O)(=O)c2cccc(S(=O)(=O)N3CCC4CCC(C(=O)NC(c5ccccc5)c5ccccc5)N4C(=O)C(NC(=O)C(C)NC)C3)c2)CCC2CCC(C(=O)NC(c3ccccc3)c3ccccc3)N2C1=O"
readout_value = "> 9.02"

[[record]]
compound = "CNC(C)C(=O)NC1CN(S(=O)(=O)c2cccc(S(=O)(=O)N3CCC4CCC(C(=O)NC(c5ccccc5)c5ccccc5)N4C(=O)C(NC(=O)C(C)NC)C3)c2)CCC2CCC(C(=O)NC(c3ccccc3)c3ccccc3)N2C1=O (stereo unspecified) + Cc1c(S(C)(=O)=O)c(-c2cc(F)cc(N3CCN(c4ccc(NS(=O)(=O)c5ccc(NC(CCN6CCC(C(=O)OCCCP(=O)(O)O)CC6)CSc6ccccc6)c(S(=O)(=O)C(F)(F)F)c5)cc4)CC3)c2)c(-c2ccc(Cl)cc2)n1C(C)C"
readout_value = "> 8.50"

[[record]]
compound = "C=C(F)C(=O)N1CCN(c2nc(OCC3CCCN3C)nc3c2CCN(c2cccc4cccc(Cl)c24)C3)CC1CC#N (stereo unspecified) + CNC(C)C(=O)NC1CN(S(=O)(=O)c2cccc(S(=O)(=O)N3CCC4CCC(C(=O)NC(c5ccccc5)c5ccccc5)N4C(=O)C(NC(=O)C(C)NC)C3)c2)CCC2CCC(C(=O)NC(c3ccccc3)c3ccccc3)N2C1=O"
readout_value = "> 7.50"

[[record]]
compound = "C#Cc1c(F)ccc2cc(O)cc(-c3ncc4c(N5CC6CCC(C5)N6)nc(OCC56CCCN5CC(F)C6)nc4c3F)c12 (stereo unspecified) + CNC(C)C(=O)NC1CN(S(=O)(=O)c2cccc(S(=O)(=O)N3CCC4CCC(C(=O)NC(c5ccccc5)c5ccccc5)N4C(=O)C(NC(=O)C(C)NC)C3)c2)CCC2CCC(C(=O)NC(c3ccccc3)c3ccccc3)N2C1=O"
readout_value = "> 7.50"

[[record]]
compound = "O=C(c1ccc(F)c(F)c1Nc1ccc(I)cc1F)N1CC(O)([C@@H]2CCCCN2)C1 + CNC(C)C(=O)NC1CN(S(=O)(=O)c2cccc(S(=O)(=O)N3CCC4CCC(C(=O)NC(c5ccccc5)c5ccccc5)N4C(=O)C(NC(=O)C(C)NC)C3)c2)CCC2CCC(C(=O)NC(c3ccccc3)c3ccccc3)N2C1=O"
readout_value = "> 8.50"

[[record]]
compound = "C=C(F)C(=O)N1CCN(c2nc(OCC3CCCN3C)nc3c2CCN(c2cccc4cccc(Cl)c24)C3)CC1CC#N (stereo unspecified) + Cc1c(S(C)(=O)=O)c(-c2cc(F)cc(N3CCN(c4ccc(NS(=O)(=O)c5ccc(NC(CCN6CCC(C(=O)OCCCP(=O)(O)O)CC6)CSc6ccccc6)c(S(=O)(=O)C(F)(F)F)c5)cc4)CC3)c2)c(-c2ccc(Cl)cc2)n1C(C)C"
readout_value = "> 7.50"


###

tested on: 755483-174-R-J1-PDC complex spheroid growth, percent test/control; test: Anticancer human tumor 755483-174-R-J1-PDC cell line growth inhibition [Asc]; conditions: second compound 0.316 µM; first compound 0.1 µM; stronger effect = lower value;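 further: spheroids exposed to compounds for seven days before readout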
Property label: viability, T/C (%)

[[record]]
compound = "C=CC(=O)N1CCN(c2nc(=O)n(-c3c(C)ccnc3C(C)C)c3nc(-c4c(O)cccc4F)c(F)cc23)C(C)C1 (stereo not drawn) + CNC(C)C(=O)NC1CN(S(=O)(=O)c2cccc(S(=O)(=O)N3CCC4CCC(C(=O)NC(c5ccccc5)c5ccccc5)N4C(=O)C(NC(=O)C(C)NC)C3)c2)CCC2CCC(C(=O)NC(c3ccccc3)c3ccccc3)N2C1=O"
property_label = "viability, T/C"
readout_value = 36.2

[[record]]
compound = "O=C(c1cc(Cc2n[nH]c(=O)c3ccccc23)ccc1F)N1CCN(C(=O)C2CC2)CC1 + CNC(C)C(=O)NC1CN(S(=O)(=O)c2cccc(S(=O)(=O)N3CCC4CCC(C(=O)NC(c5ccccc5)c5ccccc5)N4C(=O)C(NC(=O)C(C)NC)C3)c2)CCC2CCC(C(=O)NC(c3ccccc3)c3ccccc3)N2C1=O"
property_label = "viability, T/C"
readout_value = 40.1

[[record]]
compound = "O=C(c1ccc(F)c(F)c1Nc1ccc(I)cc1F)N1CC(O)([C@@H]2CCCCN2)C1 + CNC(C)C(=O)NC1CN(S(=O)(=O)c2cccc(S(=O)(=O)N3CCC4CCC(C(=O)NC(c5ccccc5)c5ccccc5)N4C(=O)C(NC(=O)C(C)NC)C3)c2)CCC2CCC(C(=O)NC(c3ccccc3)c3ccccc3)N2C1=O"
property_label = "viability, T/C"
readout_value = 31.4


###

test system: 755483-174-R-J1-PDC complex spheroid growth, percent test/control; test: Anticancer human tumor 755483-174-R-J1-PDC cell line growth inhibition [Asc]; conditions: second compound 3.16 µM; first compound 0.1 µM; stronger effect = lower value;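 further: spheroids exposed to compounds for seven days before readout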
Rule for this label: yes means viability, T/C is less than 40%; no means viability, T/C is at least 40%.

[[record]]
compound = "Cn1ncnc1[C@H]1c2n[nH]c(=O)c3cc(F)cc(c23)N[C@@H]1c1ccc(F)cc1 + Cc1c(S(C)(=O)=O)c(-c2cc(F)cc(N3CCN(c4ccc(NS(=O)(=O)c5ccc(NC(CCN6CCC(C(=O)OCCCP(=O)(O)O)CC6)CSc6ccccc6)c(S(=O)(=O)C(F)(F)F)c5)cc4)CC3)c2)c(-c2ccc(Cl)cc2)n1C(C)C"
category_label = "yes"

[[record]]
compound = "CCN1CCN(Cc2ccc(Nc3ncc(F)c(-c4cc(F)c5nc(C)n(C(C)C)c5c4)n3)nc2)CC1 + Cc1c(S(C)(=O)=O)c(-c2cc(F)cc(N3CCN(c4ccc(NS(=O)(=O)c5ccc(NC(CCN6CCC(C(=O)OCCCP(=O)(O)O)CC6)CSc6ccccc6)c(S(=O)(=O)C(F)(F)F)c5)cc4)CC3)c2)c(-c2ccc(Cl)cc2)n1C(C)C"
category_label = "no"

[[record]]
compound = "C=CC(=O)N1CCN(c2nc(=O)n(-c3c(C)ccnc3C(C)C)c3nc(-c4c(O)cccc4F)c(F)cc23)C(C)C1 (configuration not stated) + Cc1c(S(C)(=O)=O)c(-c2cc(F)cc(N3CCN(c4ccc(NS(=O)(=O)c5ccc(NC(CCN6CCC(C(=O)OCCCP(=O)(O)O)CC6)CSc6ccccc6)c(S(=O)(=O)C(F)(F)F)c5)cc4)CC3)c2)c(-c2ccc(Cl)cc2)n1C(C)C"
category_label = "no"

[[record]]
compound = "NC1CCC(NC2CC2c2ccccc2)CC1 (configuration not stated) + Cc1c(S(C)(=O)=O)c(-c2cc(F)cc(N3CCN(c4ccc(NS(=O)(=O)c5ccc(NC(CCN6CCC(C(=O)OCCCP(=O)(O)O)CC6)CSc6ccccc6)c(S(=O)(=O)C(F)(F)F)c5)cc4)CC3)c2)c(-c2ccc(Cl)cc2)n1C(C)C"
category_label = "yes"

[[record]]
compound = "COc1c(OCCCN2CCOCC2)ccc2c3n(c(=NC(=O)c4cnc(N)nc4)nc12)CCN3 + Cc1c(S(C)(=O)=O)c(-c2cc(F)cc(N3CCN(c4ccc(NS(=O)(=O)c5ccc(NC(CCN6CCC(C(=O)OCCCP(=O)(O)O)CC6)CSc6ccccc6)c(S(=O)(=O)C(F)(F)F)c5)cc4)CC3)c2)c(-c2ccc(Cl)cc2)n1C(C)C"
category_label = "yes"

[[record]]
compound = "C#Cc1c(F)ccc2cc(O)cc(-c3ncc4c(N5CC6CCC(C5)N6)nc(OCC56CCCN5CC(F)C6)nc4c3F)c12 (configuration not stated) + Cc1c(S(C)(=O)=O)c(-c2cc(F)cc(N3CCN(c4ccc(NS(=O)(=O)c5ccc(NC(CCN6CCC(C(=O)OCCCP(=O)(O)O)CC6)CSc6ccccc6)c(S(=O)(=O)C(F)(F)F)c5)cc4)CC3)c2)c(-c2ccc(Cl)cc2)n1C(C)C"
category_label = "yes"

[[record]]
compound = "C=C(F)C(=O)N1CCN(c2nc(OCC3CCCN3C)nc3c2CCN(c2cccc4cccc(Cl)c24)C3)CC1CC#N (configuration not stated) + Cc1c(S(C)(=O)=O)c(-c2cc(F)cc(N3CCN(c4ccc(NS(=O)(=O)c5ccc(NC(CCN6CCC(C(=O)OCCCP(=O)(O)O)CC6)CSc6ccccc6)c(S(=O)(=O)C(F)(F)F)c5)cc4)CC3)c2)c(-c2ccc(Cl)cc2)n1C(C)C"
category_label = "yes"

